assay: viability loss in pontine glioma line – cell-based, SU-DIPG-XIII, MIPE4.0, CellTiter-Glo, qHTS, dose response (AID 1347061); settings: CellTiter-Glo ATP luminescence;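 also: cells exposed to compound for 48 hours before readout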
Records with an inconclusive call do not appear. Activity calls are given as the source filed them. The limit is not given here; nearly all actives have AC50 up to about 37 µM.
Response enum: T for active, F for inactive

compound.string	classification
CC(C)(C)c1cc(C(=O)O)c(NC(=O)Nc2ccc3[nH]ncc3c2)s1	F
C[C@@H](Oc1ccc2[nH]nc(/C=C/c3cnn(CCO)c3)c2c1)c1c(Cl)cncc1Cl	T
CC[C@H](NC(=O)[C@H](C)NC)C(=O)N1C[C@@H](O)C[C@H]1Cc1c(-c2[nH]c3cc(F)ccc3c2C[C@@H]2C[C@H](O)CN2C(=O)[C@H](CC)NC(=O)[C@H](C)NC)[nH]c2cc(F)ccc12	F
Cn1c(CNc2ccc(C(=N)N)cc2)nc2cc(C(=O)N(CCC(=O)O)c3ccccn3)ccc21	F
COc1cc2c(cc1OC)[C@@H]1Cc3ccc(OC)c(OC)c3CN1CC2	F
CCN(CC)Cc1ccc2cc(COC(=O)Nc3ccc(C(=O)NO)cc3)ccc2c1	T
Cc1ccc([C@@H]2O[C@H](CO)[C@@H](O)[C@H](O)[C@H]2O)cc1Cc1ccc(-c2ccc(F)cc2)s1	F

Shifting focus to the molecule that follows.
Recorded call for O=C1NC(=O)/C(=C\c2ccc(-c3ccc(F)cc3)o2)S1 ?
F

FYI, the data here is from PubChem BioAssay.
